target: T1, recombinant biotinylated CD71 extracellular domain (Sino Biologics) with an N-terminal 6His tag (human, UniProt P02786 89-760, biotinylated (sites not given)); experiment: screening ELISA, ratio
T1 construct: extracellular domain; also called hCD71; huCD71
T1 sequence (P02786 other isoform, or with tags, fused parts or gaps): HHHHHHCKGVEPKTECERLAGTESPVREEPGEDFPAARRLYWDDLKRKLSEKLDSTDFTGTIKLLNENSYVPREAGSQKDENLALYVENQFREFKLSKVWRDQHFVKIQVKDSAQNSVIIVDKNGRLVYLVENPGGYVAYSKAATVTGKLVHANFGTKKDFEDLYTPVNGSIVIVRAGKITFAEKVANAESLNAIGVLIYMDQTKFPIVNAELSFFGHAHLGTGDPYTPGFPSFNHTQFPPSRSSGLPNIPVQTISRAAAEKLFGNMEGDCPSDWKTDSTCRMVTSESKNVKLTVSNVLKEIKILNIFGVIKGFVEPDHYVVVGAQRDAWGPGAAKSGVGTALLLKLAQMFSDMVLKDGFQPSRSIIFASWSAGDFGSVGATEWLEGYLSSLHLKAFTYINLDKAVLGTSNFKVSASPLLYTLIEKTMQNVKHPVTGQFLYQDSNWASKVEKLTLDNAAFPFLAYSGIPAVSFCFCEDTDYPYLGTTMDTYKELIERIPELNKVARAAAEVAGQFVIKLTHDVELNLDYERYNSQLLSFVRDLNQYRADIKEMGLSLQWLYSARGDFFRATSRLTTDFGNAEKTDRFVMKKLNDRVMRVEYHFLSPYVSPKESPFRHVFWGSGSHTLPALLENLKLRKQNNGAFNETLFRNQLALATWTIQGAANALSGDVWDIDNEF
Kindly state hCD71:HSA for each of the entries shown.
Answers are plain numbers.

Below, each entry is followed by its recorded hCD71:HSA result.
>  <BINDER>
SEQ ID NO 152 (designed binder, FN3 domain) MLPAPKNLVVSRVTEDSARLSWTAPDAAFDSFFIGYLEPQPPGEAIVLTVPGSERSYDLTGLKPGTEYNVTIQGVKGGFPSSPLSAIFTT

>  <VAL>
534

$$$$
>  <BINDER>
SEQ ID NO 248 (designed binder, FN3 domain) MGSLPAPKNLVVSRVTEDSARLSWTAPDAAFDSFAIPYAEPSPTGEAIVLTVPGSERSYDLTGLKPGTEYPVWIQGVKGGSPSAPLSAEFTT

>  <VAL>
55

$$$$
>  <BINDER>
SEQ ID NO 197 (designed binder, FN3 domain) MLPAPKNLVVSRVTEDSARLSWTAPDAAFDSFKIDYLEINDNGEAIVLTVPGSERSYDLTGLKPGTEYPVYIWGVKGGYPSSPLSAIFTT

>  <VAL>
242

$$$$
>  <BINDER>
SEQ ID NO 135 (designed binder, FN3 domain) MLPAPKNLVVSRVTEDSARLSWTAPDAAFDSFPISYYEMSGLGEAIVLTVPGSERSYDLTGLKPGTEYMVYIFGVKGGLNSLPLSAIFTT

>  <VAL>
1370

$$$$
>  <BINDER>
SEQ ID NO 198 (designed binder, FN3 domain) MLPAPKNLVVSRVTEDSARLSWTAPDAAFDSFLIAYNEDRKFGEAIVLTVPGSERSYDLTGLKPGTEYDVWIEGVKGGSLSFPLSAIFTT

>  <VAL>
1130

$$$$
>  <BINDER>
SEQ ID NO 85 (designed binder, FN3 domain) MLPAPKNLVVSRVTEDSARLSWTAPDAAFDSFFIWYWEKSVDGEAIVLTVPGSERSYDLTGLKPGTEYNVGIQGVKGGTPSDPLSAIFTT

>  <VAL>
1160

$$$$

Hi there! I need hCD71:HSA for each item below, if you can.
1. SEQ ID NO 93 (designed binder, FN3 domain) MLPAPKNLVVSRVTEDSARLSWTAPDAAFDSFYIGYLEPGDNGEAIVLTVPGSERSYDLTGLKPGTEYNVSIGGVKGGLGSYPLSAIFTT
2. SEQ ID NO 288 (designed binder, FN3 domain) MLPAPKNLVVSRVTEDSARLSWTAPDAAFDSFLIPYAETSPSGEAIVLTVPGSERSYDLTGLKPGTEYSVLIHGVKGGDYSSPLSAISTT
3. SEQ ID NO 188 (designed binder, FN3 domain) MLPAPKNLVVSRVTEDSARLSWTAPDAAFDSFLIPYAETSPSGEAIVLTVPGSERSYDLTGLKPGTEYSVLIHGVKGGKLSLPLSAIFTT

1: 1310; 2: 16; 3: 797

Ref: patent US20210145976A1
